MOLECULE	logP
CCOc1ccc(NC(=O)OC(C)c2ccccc2)cc1OCC (stereo not given)	3.56
C#CCC(C)OC(=O)Nc1ccc(OCC)c(OCC)c1 (stereo not given)	2.86
CCOc1ccc(NC(=O)OC(C)(C)C)cc1OCC	3.17
CCOc1ccc(NC(=O)OC(C)COC)cc1OCC (stereo not given)	2.56
CCOc1ccc(NC(=O)OC(C)C(Cl)(Cl)Cl)cc1OCC (stereo not given)	3.96
CCOc1ccc(NC(=O)OC(C)CCl)cc1OCC (stereo not given)	2.97
C#CCCOC(=O)Nc1ccc(OCC)c(OCC)c1	2.54
C=CCC(C)OC(=O)Nc1ccc(OCC)c(OCC)c1 (stereo not given)	3.37
CCOc1ccc(NC(=O)OCCBr)cc1OCC	2.78
CCOc1ccc(NC(=O)OCCCl)cc1OCC	2.62
C=CC(CC)OC(=O)Nc1ccc(OCC)c(OCC)c1 (stereo not given)	3.42
C#CC(CC)OC(=O)Nc1ccc(OCC)c(OCC)c1 (stereo not given)	3.07
CCCCCCC(C)OC(=O)Nc1ccc(OCC)c(OCC)c1 (stereo not given)	5.06
CCOc1ccc(NC(=O)OC(C)CF)cc1OCC (stereo not given)	2.59
CCOc1ccc(NC(=O)OCCF)cc1OCC	2.27
